compounds and their reported Diameter (nm)
test-description: Diameter and PDI from DLS measurements of mRNA nanoparticles with lipid amines
Assay type: physicochemical
assay-context: CFTR mRNA nanoparticle with lipid amine
Counter-ions that a name gives are not always drawn.
Numeric answer only, unit nm assumed.

Field: example entries. Status: answers known.
1. CC(C)CCC[C@@H](C)[C@H]1CC[C@H]2[C@@H]3CC=C4C[C@@H](OC(=O)CCC(=O)N(CCCN)CCCCCCCCN)CC[C@]4(C)[C@H]3CC[C@]12C [SA72, dihydrochloride] :: 73.0
2. CC[C@H](CC[C@@H](C)[C@H]1CC[C@H]2[C@@H]3CC=C4C[C@@H](OC(=O)CCC(=O)N(CCCC(C)(C)N)CCC(C)(C)N)CC[C@]4(C)[C@H]3CC[C@]12C)C(C)C [SA167, dihydrochloride] :: 75.1
3. CC(C)CCC[C@@H](C)[C@H]1CC[C@H]2[C@@H]3CC=C4C[C@@H](OC(=O)CN(CCCCCCCCN)C(=O)CCCCN)CC[C@]4(C)[C@H]3CC[C@]12C [SA122, dihydrochloride] :: 83.5
4. CC[C@H](CC[C@@H](C)[C@H]1CC[C@H]2[C@@H]3CC=C4C[C@@H](SSCCC(=O)N(CCCCNCCC(N)(CC)CC)CCC(N)(CC)CC)CC[C@]4(C)[C@H]3CC[C@]12C)C(C)C [SA181, trihydrochloride] :: 69
5. CC(C)CCC[C@@H](C)[C@H]1CC[C@H]2[C@@H]3CC=C4C[C@@H](OC(=O)CC(=O)N(CCCN)CCCCNCCCN)CC[C@]4(C)[C@H]3CC[C@]12C.Cl.Cl.Cl :: 76.9

Problem: Reported Diameter (nm) for CC(C)CCC[C@@H](C)[C@H]1CC[C@H]2[C@@H]3CC=C4C[C@@H](SSCCC(=O)N(CCCCCCCC(C)N)CCC(C)N)CC[C@]4(C)[C@H]3CC[C@]12C (some centres unmarked) [SA172, dihydrochloride] : what is it?
Result: 70.3

Problem: Next compound: CCC(N)(CC)CCNCCCCN(CCC(N)(CC)CC)C(=O)CCSS[C@H]1CC[C@@]2(C)C(=CC[C@H]3[C@@H]4CC[C@H]([C@H](C)CCCC(C)C)[C@@]4(C)CC[C@@H]32)C1 [SA184, trihydrochloride]
Result: 71

Problem: Next compound: CC(C)CCC[C@@H](C)[C@H]1CC[C@H]2[C@@H]3CC=C4C[C@@H](OC(=O)CCCC(=O)N(CCCCNCCC(C)N)CCC(C)N)CC[C@]4(C)[C@H]3CC[C@]12C.Cl.Cl.Cl (some centres unmarked)
Result: 75.0

Problem: Next compound: "CC(C)CCC[C@@H](C)[C@H]1CC[C@H]2[C@@H]3CC=C4C[C@@H](OC(=O)CCCC(=O)N(CCCN)CCCCCCCCN)CC[C@]4(C)[C@H]3CC[C@]12C.Cl.Cl"
Result: 74.1

Problem: Next compound: CC(C)CCC[C@@H](C)[C@H]1CC[C@H]2[C@@H]3CC=C4C[C@@H](SSCCC(=O)N(CCC(C)N)CCC(C)N)CC[C@]4(C)[C@H]3CC[C@]12C (some centres unmarked) [SA173, dihydrochloride]
Result: 71.8

Problem: Next compound: CC(C)CCC[C@@H](C)[C@H]1CC[C@H]2[C@@H]3CC=C4C[C@@H](OC(=O)CCCC(=O)N(CCCCNCCC(C)(C)N)CCC(C)(C)N)CC[C@]4(C)[C@H]3CC[C@]12C [SA121, trihydrochloride]
Result: 79.2

Problem: Next compound: CC(C)CCC[C@@H](C)[C@H]1CC[C@H]2[C@@H]3CC=C4C[C@@H](OC(=O)N(CCCCNCC(C)(C)CN)CC(C)(C)CN)CC[C@]4(C)[C@H]3CC[C@]12C [SA77, trihydrochloride]
Result: 83.9

Problem: Next compound: "CCC(N)(CC)CCNCCCCN(CCC(N)(CC)CC)C(=O)O[C@H]1CC[C@@]2(C)C(=CC[C@H]3[C@@H]4CC[C@H]([C@H](C)CCCC(C)C)[C@@]4(C)CC[C@@H]32)C1.Cl.Cl.Cl"
Result: 73.5

Problem: Next compound: CC(C)CCC[C@@H](C)[C@H]1CC[C@H]2[C@@H]3CC=C4C[C@@H](OC(=O)CCCC(=O)N(CCCCCCCC(C)N)CCC(C)N)CC[C@]4(C)[C@H]3CC[C@]12C (some centres unmarked) [SA142, dihydrochloride]
Result: 69.5
